SYSTEM: UniProtKB P14423
METHOD_DESCRIPTION: In vitro inhibition of rat secretory Phospholipase A2 (group II).
ENDPOINT: IC50 (nM)

Solved cases below.
SMILES_REPR | IC50 [nM]
COc1ccc([S+]([O-])c2ccc(OC)c(C(=O)Oc3c(C)c(C)c(C(=O)Oc4c(C)c(C)c(C(=O)O)c(OC)c4C)c(OC)c3C)c2)cc1C(=O)Oc1c(C)c(C)c(C(=O)Oc2c(C)c(C)c(C(=O)O)c(OC)c2C)c(OC)c1C | 120
COc1ccc(S(=O)(=O)c2ccc(OC)c(C(=O)Oc3c(C)c(C)c(C(=O)Oc4c(C)c(C)c(C(=O)O)c(OC)c4C)c(OC)c3C)c2)cc1C(=O)Oc1c(C)c(C)c(C(=O)Oc2c(C)c(C)c(C(=O)O)c(OC)c2C)c(OC)c1C | 50

P: COc1c(C)c(OC(=O)c2c(C)c(C)c(OC(=O)CCC(=O)Oc3c(C)c(C)c(C(=O)Oc4c(C)c(C)c(C(=O)O)c(OC)c4C)c(OC)c3C)c(C)c2OC)c(C)c(C)c1C(=O)O
Q: COc1c(C)c(OC)c(C(=O)O)c(C)c1Cc1c(C)c(C(=O)Oc2c(C)c(C)c(C(=O)Oc3c(C)c(C)c(C(=O)O)c(OC)c3C)c(OC)c2C)c(OC)c(C)c1OC
R: COc1ccc(Sc2ccc(OC)c(C(=O)Oc3c(C)c(C)c(C(=O)Oc4c(C)c(C)c(C(=O)O)c(OC)c4C)c(OC)c3C)c2)cc1C(=O)O
Input: Output the entries ranked by IC50 from maximum down to minimum. Reply format: the labels, ordered as requested.
Output: Q, R, P
(Q: 3000 nM, R: 2100 nM, P: 40 nM)

----------
SYSTEM: UniProtKB P14555
METHOD_DESCRIPTION: In vitro inhibition of human recombinant secretory Phospholipase A2 (group II).
pIC50: −log10 of the molar value.
ENDPOINT: pIC50

COMPOUND | RESULT_NUMBER
COc1c(C)c(OC(=O)c2c(C)c(C)c(OC(=O)c3cc(=O)cc(C(=O)Oc4c(C)c(C)c(C(=O)Oc5c(C)c(C)c(C(=O)O)c(OC)c5C)c(OC)c4C)o3)c(C)c2OC)c(C)c(C)c1C(=O)O | 5.24
COc1c(C)c(OC)c(C(=O)Oc2c(C)c(C)c(C(=O)Oc3c(C)c(C)c(C(=O)O)c(OC)c3C)c(OC)c2C)c(C)c1Cc1c(C)c(C(=O)Oc2c(C)c(C)c(C(=O)Oc3c(C)c(C)c(C(=O)O)c(OC)c3C)c(OC)c2C)c(OC)c(C)c1OC | 6.72
CCN(CC)CCCC(C)Nc1c2ccc(Cl)cc2nc2ccc(OC)cc12 (stereo unspecified) [QUINACRINE] | 4.12
CC1=C(CC/C(C)=C/CCC2=CC[C@H](C3=CC(=O)O[C@H]3O)O[C@H]2O)C(C)(C)CCC1 [MANOALIDE] | 5.82

I: COc1ccc(Sc2ccc(OC)c(C(=O)Oc3c(C)c(C)c(C(=O)Oc4c(C)c(C)c(C(=O)O)c(OC)c4C)c(OC)c3C)c2)cc1C(=O)O
II: COc1c(C)c(OC(=O)c2c(C)c(C)c(OC(=O)c3c(C)cc(O)c(Cc4c(C)c(C(=O)Oc5c(C)c(C)c(C(=O)Oc6c(C)c(C)c(C(=O)O)c(OC)c6C)c(OC)c5C)c(O)c(C)c4O)c3O)c(C)c2OC)c(C)c(C)c1C(=O)O [THIELOCIN B3]
Input: Which of these two has the smaller recorded pIC50: I or II ? Your answer should be the label of the entry you select.
Output: I

----------
SYSTEM: Phospholipase A2, membrane associated (Homo sapiens)
METHOD_DESCRIPTION: In vitro inhibition of human recombinant secretory Phospholipase A2 (group II).
pIC50: −log10 of the molar value.
ENDPOINT: pIC50

SMILES_REPR | pIC50
COc1ccc(Sc2ccc(OC)c(C(=O)Oc3c(C)c(C)c(C(=O)O)c(OC)c3C)c2)cc1C(=O)Oc1c(C)c(C)c(C(=O)O)c(OC)c1C | 5.32

1: COc1c(C)c(OC)c(C(=O)O)c(C)c1Cc1c(C)c(C(=O)Oc2c(C)c(C)c(C(=O)Oc3c(C)c(C)c(C(=O)O)c(OC)c3C)c(OC)c2C)c(OC)c(C)c1OC
2: COc1c(C)c(OC(=O)c2c(C)c(C)c(OC(=O)c3cccc(C(=O)Oc4c(C)c(C)c(C(=O)Oc5c(C)c(C)c(C(=O)O)c(OC)c5C)c(OC)c4C)c3)c(C)c2OC)c(C)c(C)c1C(=O)O
Input: Which of these two has the smaller recorded pIC50: 1 or 2 ? Your answer should be the label of the entry you select.
Output: 1

----------
SYSTEM: Phospholipase A2, membrane associated (Homo sapiens, UniProt P14555)
Sequence (P14555 whole entry): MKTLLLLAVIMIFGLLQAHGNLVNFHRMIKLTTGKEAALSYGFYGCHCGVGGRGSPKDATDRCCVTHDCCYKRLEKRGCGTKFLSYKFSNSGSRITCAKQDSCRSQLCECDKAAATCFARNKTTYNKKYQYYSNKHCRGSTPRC
METHOD_DESCRIPTION: In vitro inhibition of human recombinant secretory Phospholipase A2 (group II).
ENDPOINT: IC50 (nM)

a: COc1c(C)c(OC(=O)c2c(C)c(C)c(OC(=O)c3c(C)c(CN[C@@H](C)c4ccccc4)c(O)c(C)c3O)c(C)c2OC)c(C)c(C)c1C(=O)O
b: COc1c(C)c(OC(=O)c2c(C)c(C)c(OC(=O)/C=C/C(=O)Oc3c(C)c(C)c(C(=O)Oc4c(C)c(C)c(C(=O)O)c(OC)c4C)c(OC)c3C)c(C)c2OC)c(C)c(C)c1C(=O)O
c: COc1c(C)c(OC(=O)c2c(C)c(C)c(OC(=O)C3=C(C)[C@@](C)(O)C4(O)Oc5c(C)c(OC)c(C(=O)Oc6c(C)c(C)c(C(=O)O)c(OC)c6C)c(C)c5C[C@@]4(C)C3=O)c(C)c2OC)c(C)c(C)c1C(=O)O (stereo not given in full) [THIELOCIN A1]
Input: Which order do the items above take when sorted by IC50 from high to low? Reply format: the labels, ordered as requested.
Output: c, b, a

I: COc1ccc([S+]([O-])c2ccc(OC)c(C(=O)Oc3c(C)c(C)c(C(=O)Oc4c(C)c(C)c(C(=O)O)c(OC)c4C)c(OC)c3C)c2)cc1C(=O)Oc1c(C)c(C)c(C(=O)Oc2c(C)c(C)c(C(=O)O)c(OC)c2C)c(OC)c1C
II: COc1ccc(S(=O)(=O)c2ccc(OC)c(C(=O)Oc3c(C)c(C)c(C(=O)Oc4c(C)c(C)c(C(=O)O)c(OC)c4C)c(OC)c3C)c2)cc1C(=O)Oc1c(C)c(C)c(C(=O)Oc2c(C)c(C)c(C(=O)O)c(OC)c2C)c(OC)c1C
Input: Between I and II , whose measured IC50 reads higher? Your answer should be the label of the entry you select.
Output: I
(I: 260 nM, II: 69 nM)

----------
SYSTEM: Phospholipase A2, membrane associated (Rattus norvegicus, UniProt P14423)
Sequence (P14423 whole entry): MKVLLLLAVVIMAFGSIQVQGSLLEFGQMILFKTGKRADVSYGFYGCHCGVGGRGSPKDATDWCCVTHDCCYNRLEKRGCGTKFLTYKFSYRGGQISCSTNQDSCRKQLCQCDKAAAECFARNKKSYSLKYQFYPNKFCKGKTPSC
METHOD_DESCRIPTION: In vitro inhibition of rat secretory Phospholipase A2 (group II).
ENDPOINT: IC50 (µM)

Solved cases below.
COMPOUND | RESULT_NUMBER
COc1ccc(Oc2ccc(OC)c(C(=O)Oc3c(C)c(C)c(C(=O)O)c(OC)c3C)c2)cc1C(=O)Oc1c(C)c(C)c(C(=O)O)c(OC)c1C | 3.4
CCN(CC)CCCC(C)Nc1c2ccc(Cl)cc2nc2ccc(OC)cc12 (stereo unspecified) | 320
COc1c(C)c(OC(=O)c2c(C)c(C)c(OC(=O)c3c(C)cc(O)c(Cc4c(C)c(C(=O)Oc5c(C)c(C)c(C(=O)Oc6c(C)c(C)c(C(=O)O)c(OC)c6C)c(OC)c5C)c(O)c(C)c4O)c3O)c(C)c2OC)c(C)c(C)c1C(=O)O | 0.012
COc1ccc(Sc2ccc(OC)c(C(=O)Oc3c(C)c(C)c(C(=O)O)c(OC)c3C)c2)cc1C(=O)Oc1c(C)c(C)c(C(=O)O)c(OC)c1C | 2.5
COc1c(C)c(OC(=O)c2c(C)c(C)c(OC(=O)c3cc(=O)cc(C(=O)Oc4c(C)c(C)c(C(=O)Oc5c(C)c(C)c(C(=O)O)c(OC)c5C)c(OC)c4C)o3)c(C)c2OC)c(C)c(C)c1C(=O)O | 0.88
COc1c(C)c(OC(=O)c2c(C)c(C)c(OC(=O)c3c(C)c(CN[C@@H](C)c4ccccc4)c(O)c(C)c3O)c(C)c2OC)c(C)c(C)c1C(=O)O | 0.36
Cc1c(O)c(Cc2c(C)c(C(=O)Oc3c(C)c(C)c(C(=O)Oc4c(C)c(C)c(C(=O)O)c(O)c4C)c(O)c3C)c(O)c(C)c2O)c(C)c(C(=O)Oc2c(C)c(C)c(C(=O)Oc3c(C)c(C)c(C(=O)O)c(O)c3C)c(O)c2C)c1O | 0.95
COc1c(C)c(OC(=O)c2c(C)c(C)c(OC(=O)C3=C(C)[C@@](C)(O)C4(O)Oc5c(C)c(OC)c(C(=O)Oc6c(C)c(C)c(C(=O)O)c(OC)c6C)c(C)c5C[C@@]4(C)C3=O)c(C)c2OC)c(C)c(C)c1C(=O)O (stereo partly specified) | 0.0033

a: COc1c(C)c(OC)c(C(=O)Oc2c(C)c(C)c(C(=O)Oc3c(C)c(C)c(C(=O)O)c(OC)c3C)c(OC)c2C)c(C)c1Cc1c(C)c(C(=O)Oc2c(C)c(C)c(C(=O)Oc3c(C)c(C)c(C(=O)O)c(OC)c3C)c(OC)c2C)c(OC)c(C)c1OC
b: COc1ccc(Oc2ccc(OC)c(C(=O)Oc3c(C)c(C)c(C(=O)Oc4c(C)c(C)c(C(=O)O)c(OC)c4C)c(OC)c3C)c2)cc1C(=O)Oc1c(C)c(C)c(C(=O)Oc2c(C)c(C)c(C(=O)O)c(OC)c2C)c(OC)c1C
Input: Between a and b , whose measured IC50 reads higher? Your answer should be the label of the entry you select.
Output: a
(a: 0.13 µM, b: 0.042 µM)
